Provide the recorded PBM E-score for the entries that follow.
Biological target: Cin5 (UniProt P40917)
Sequence: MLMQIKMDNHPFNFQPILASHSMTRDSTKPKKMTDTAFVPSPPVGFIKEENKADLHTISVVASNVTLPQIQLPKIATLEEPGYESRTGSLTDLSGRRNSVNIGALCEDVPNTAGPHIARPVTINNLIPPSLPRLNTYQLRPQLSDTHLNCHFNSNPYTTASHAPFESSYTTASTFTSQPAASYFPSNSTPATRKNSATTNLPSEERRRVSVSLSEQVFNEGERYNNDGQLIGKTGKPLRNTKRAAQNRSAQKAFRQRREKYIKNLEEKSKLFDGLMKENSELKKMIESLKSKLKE
Assay: PBM E-score (8-mer binding enrichment) (E-score (-0.5 to 0.5)); higher = stronger / more preferred TF binding
Details: protein concentration: 100 nM; construct: GST-full length
Over roughly 33,000 sequences, “E-score (-0.5 to 0.5)” has its median near -0.0059; the highest 2% begin near 0.26. This excerpt belongs to a sample that is enriched for the highest values.
When you answer, write just the number.

Considering AATGGAAC , its PBM E-score with Cin5 (UniProt P40917) was recorded as 0.103

Entry GGTGCTTA , Cin5 (UniProt P40917) data, PBM E-score value: 0.0985

Note to self: PBM E-score of ATAAATAG with Cin5 (UniProt P40917) was 0.102

###

Molecular target: Cin5 (UniProt P40917)
Sequence: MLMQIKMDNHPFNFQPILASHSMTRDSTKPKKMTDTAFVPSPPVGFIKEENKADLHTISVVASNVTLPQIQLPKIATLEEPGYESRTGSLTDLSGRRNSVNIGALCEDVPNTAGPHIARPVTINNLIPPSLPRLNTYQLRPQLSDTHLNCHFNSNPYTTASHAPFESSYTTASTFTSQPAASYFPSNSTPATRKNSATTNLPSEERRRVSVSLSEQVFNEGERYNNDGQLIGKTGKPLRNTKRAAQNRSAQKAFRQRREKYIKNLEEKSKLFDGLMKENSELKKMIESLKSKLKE
Assay: PBM E-score (8-mer binding enrichment) (E-score (-0.5 to 0.5)); higher = stronger / more preferred TF binding
Details: protein concentration: 100 nM; construct: GST-full length
Whole data set: some 33,000 sequences, median “E-score (-0.5 to 0.5)” near -0.0059, cut for the highest 2% near 0.26. The full list was thinned out, with the highest values kept by preference.
Give PBM E-score for every item shown.
// return a plain number; no unit text

Note to self: PBM E-score of CGGAGACC with Cin5 (UniProt P40917) was -0.167

Entry CTTAATAC ; assay system Cin5 (UniProt P40917); PBM E-score recorded at 0.191

Cin5 (UniProt P40917) data for CGGTGGTC ; its PBM E-score: -0.098

Bench note, Cin5 (UniProt P40917): entry GGACTTAA , its PBM E-score = -0.15

The value of PBM E-score recorded for CGAATGAA when tested on Cin5 (UniProt P40917) reads 0.0154

The value of PBM E-score recorded for AGTAAGTA when tested on Cin5 (UniProt P40917) reads 0.227

Record for CTTATTAC under target or system Cin5 (UniProt P40917): PBM E-score reported as 0.236

Form field, PBM E-score with Cin5 (UniProt P40917), item ACTATTAA : 0.162

// PBM E-score (Cin5 (UniProt P40917)) for ATTAAAAA = 0.162

Cin5 (UniProt P40917) data for ACTAAGCA ; its PBM E-score: 0.241

Tested system Cin5 (UniProt P40917); PBM E-score recorded for ACAGAACA was 0.136

The value of PBM E-score recorded for CGCCATCA when tested on Cin5 (UniProt P40917) reads -0.202

Record AAATTCAT ; system Cin5 (UniProt P40917); PBM E-score = 0.0992

Note to self: PBM E-score of GTGTGTCA with Cin5 (UniProt P40917) was 0.0629

Per the reported Cin5 (UniProt P40917) data, TGACTTAA has PBM E-score of 0.268

Noted PBM E-score for GCTATTAA , tested on Cin5 (UniProt P40917): 0.0303

Entry CACACACG ; assay system Cin5 (UniProt P40917); PBM E-score recorded at -0.0573

// PBM E-score (Cin5 (UniProt P40917)) for CAAGAAGC = 0.0478

Lab entry: Cin5 (UniProt P40917) assay, sequence GGTATACC , PBM E-score = -0.0512

Measured PBM E-score for this entry CACAACTA on Cin5 (UniProt P40917): 0.211

PBM E-score for Cin5 (UniProt P40917) with input AGTAAGGG equals 0.0482

Entry CAGCAAAG , tested on Cin5 (UniProt P40917), has a reported PBM E-score of -0.0276

Reading of PBM E-score for AGCAGCCC with Cin5 (UniProt P40917): -0.142

Case CTTATTGA , Cin5 (UniProt P40917), PBM E-score recorded as 0.125

Assay Cin5 (UniProt P40917), sample AAACATGG , PBM E-score read: 0.0681

PBM E-score of AGTAAGCA , assay on Cin5 (UniProt P40917), is 0.283

Assay Cin5 (UniProt P40917), sample GGATTGAA , PBM E-score read: 0.104

PBM E-score value, target or system Cin5 (UniProt P40917), for CTTAATAA : 0.267

Cin5 (UniProt P40917) assay, sequence AGGGTGTC , recorded PBM E-score = -0.136

The reported Cin5 (UniProt P40917) PBM E-score of CATGGATC is -0.00694

Field PBM E-score (system: Cin5 (UniProt P40917)) for entry AAGTAGAG = -0.126

Lab entry: Cin5 (UniProt P40917) assay, sequence AGGTATTG , PBM E-score = 0.126

ATTAATGG on Cin5 (UniProt P40917) gives PBM E-score = 0.156

Record ATCATTAA ; system Cin5 (UniProt P40917); PBM E-score = 0.221

Record for CTTATTAA under target or system Cin5 (UniProt P40917): PBM E-score reported as 0.299

Hey, Cin5 (UniProt P40917) data for AGAATGAC : PBM E-score came out at 0.0989

Form: item ATTAATAA ; test system Cin5 (UniProt P40917); PBM E-score: 0.336

The sequence CCTGGGAG on Cin5 (UniProt P40917): PBM E-score was -0.176

Result for ATGAATAG , tested on Cin5 (UniProt P40917), PBM E-score: 0.148

Bench note, Cin5 (UniProt P40917): entry GGTAAGAA , its PBM E-score = 0.011

Let me check: GGGACATA , system Cin5 (UniProt P40917), measured PBM E-score is 0.0818

Cin5 (UniProt P40917) data for ATTAATAG ; its PBM E-score: 0.272

Noted PBM E-score for CCAAAGAC , tested on Cin5 (UniProt P40917): -0.185

Short answer on Cin5 (UniProt P40917) for AGAGAGCC , PBM E-score: -0.283

Item: AAGCCGCG | System: Cin5 (UniProt P40917) | PBM E-score: -0.0409

// PBM E-score (Cin5 (UniProt P40917)) for AAACATAT = 0.269

GET /values?item= ACTATTAC &system= Cin5 (UniProt P40917) returns PBM E-score: 0.224

Hey, Cin5 (UniProt P40917) data for CTGCCCGA : PBM E-score came out at -0.00627

I looked up AGTTGAAG and its PBM E-score for Cin5 (UniProt P40917) was -0.00489

Reading of PBM E-score for ATTGGGGA with Cin5 (UniProt P40917): 0.00734

Hey, Cin5 (UniProt P40917) data for CAACAGTA : PBM E-score came out at 0.0302

Considering ATGACATC , its PBM E-score with Cin5 (UniProt P40917) was recorded as 0.248

Reported Cin5 (UniProt P40917) PBM E-score for item AGTTGAAT was 0.259

Record CTTACCTA has Cin5 (UniProt P40917) PBM E-score equal to 0.32

Result for ACTAAGCG , tested on Cin5 (UniProt P40917), PBM E-score: 0.149

Reported PBM E-score (Cin5 (UniProt P40917)) for entry CTGTAGCA is -0.13

Note to self: PBM E-score of ATTATTAC with Cin5 (UniProt P40917) was 0.305

Cin5 (UniProt P40917) PBM E-score of CAAGCGCA is 0.323

Reading of PBM E-score for CCGAGGAG with Cin5 (UniProt P40917): -0.213

// assay Cin5 (UniProt P40917), entry GTGACTTA , PBM E-score value = 0.0722

PBM E-score of GTTAATAA , assay on Cin5 (UniProt P40917), is 0.186

Item: ATCAACGA | System: Cin5 (UniProt P40917) | PBM E-score: 0.0637

Sample AATTTAGG , system: Cin5 (UniProt P40917). Its PBM E-score is 0.168

Result for ATACTCAG , tested on Cin5 (UniProt P40917), PBM E-score: 0.258

PBM E-score of GTGTAGGA , assay on Cin5 (UniProt P40917), is -0.0437

Sample GATCCCCC , system: Cin5 (UniProt P40917). Its PBM E-score is -0.426

For the sequence GTAACGGA , the measured PBM E-score on Cin5 (UniProt P40917) was 0.252

Item: TCTAGAGA | System: Cin5 (UniProt P40917) | PBM E-score: -0.228

Value sought: PBM E-score, system Cin5 (UniProt P40917), item GATATTCA . Result: 0.0685

Case CTGACTAA , Cin5 (UniProt P40917), PBM E-score recorded as 0.36

Reference source: the supplement of paper PMC3334620
